Test: Pharmacokinetic study after single intragastric bolus to rats
Format: in vivo, male Wistar rats
Details: male, Wistar, whole blood, po, 88 umol/kg; rat, single intragastric bolus 88 µmol/kg; read-out: time of peak blood level after administration (converted)

| given-smiles | Tmax |
| --- | --- |
| COCCOCCOCCOCCOCCOCCNC(=O)Oc1ccc(/C=C/c2cc(OC(=O)NCCOCCOCCOCCOCCOCCOC)cc(OC(=O)NCCOCCOCCOCCOCCOCCOC)c2)cc1 | 10 min |
| COCCOCCOCCOCCNC(=O)Oc1ccc(/C=C/c2cc(OC(=O)NCCOCCOCCOCCOC)cc(OC(=O)NCCOCCOCCOCCOC)c2)cc1 | 10 min |

---

Test: Stability (hydrolysis) in rodent whole blood, 37 °C
Format: in vitro ADME
Conditions: whole blood, rat blood, 5 µM compound
Description: Kinetic analysis of the data was performed by assuming that hydrolysis to resveratrol occurred via consecutive losses of the three protecting groups in pseudo-first order processes and by considering each pair of isomeric intermediates (potentially) resulting from the first and second hydrolysis steps as a single species, i.e. the two monosubstituted and the two disubstituted intermediates were handled as species I and II, respectively (Scheme 3). […]

| given-smiles | half-life at 5 µM, min |
| --- | --- |
| COCCOCCOCCOCCNC(=O)Oc1ccc(/C=C/c2cc(OC(=O)NCCOCCOCCOCCOC)cc(OC(=O)NCCOCCOCCOCCOC)c2)cc1 | 18 |
| COCCOCCOCCOCCOCCOCCNC(=O)Oc1ccc(/C=C/c2cc(OC(=O)NCCOCCOCCOCCOCCOCCOC)cc(OC(=O)NCCOCCOCCOCCOCCOCCOC)c2)cc1 | 30 |
| COCCOCCOCCNC(=O)Oc1ccc(/C=C/c2cc(OC(=O)NCCOCCOCCOC)cc(OC(=O)NCCOCCOCCOC)c2)cc1 | 30 |

---

Assay: Hydrolysis in PBS 0.1 M at pH 6.8 (intestinal pH), 37 °C
Assay type: physicochemical
Conditions: 0.1 M PBS buffer, pH 6.8, 37 °C, 5 µM compound
Measured half-life at 5 µM values are reported for all entries that follow.

| given-smiles | half-life at 5 µM, h |
| --- | --- |
| COCCOCCOCCOCCNC(=O)Oc1ccc(/C=C/c2cc(OC(=O)NCCOCCOCCOCCOC)cc(OC(=O)NCCOCCOCCOCCOC)c2)cc1 | 3.5 |
| COCCOCCOCCOCCOCCOCCNC(=O)Oc1ccc(/C=C/c2cc(OC(=O)NCCOCCOCCOCCOCCOCCOC)cc(OC(=O)NCCOCCOCCOCCOCCOCCOC)c2)cc1 | 4.5 |
| COCCOCCOCCNC(=O)Oc1ccc(/C=C/c2cc(OC(=O)NCCOCCOCCOC)cc(OC(=O)NCCOCCOCCOC)c2)cc1 | 6 |
